- Tested on: Prostate LnCAP (positive PSA)
- procedure_summary: activity of PSA cleavable analogs, 48 hour exposure, PSA positive cell line
- Assay type: cell-based
- condition: N = 3, mean ± SD
endpoint_name: IC50

## Input // returns reported IC50 for input CC1=C2C(=C[C@@](C)(CO[Si](C)(C)C(C)(C)C)[C@@H]2OC(=O)[C@@H]2CCCN2C(=O)[C@H](CO)NC(=O)[C@@H](N)CO)C(=O)[C@](C)(O)C12CC2 [Analog 214]
## Output 190 nM

====

- System: MCF7 (ER positive)
- procedure_summary: cytotoxic data IC50, 2 hour exposure, cells expressing the estrogen receptor
- Type: cell-based
- condition: N = 3, mean ± SD
endpoint_name: IC50 (µM)
Report the figure in µM without appending any unit label.

## Input // returns reported IC50 for input CC1=C(CCC(=O)Oc2ccc3c(c2)CCC2C3CCC3(C)C(O)CCC23)C2=C(C)C3(CC3)C(C)(O)C(=O)C2=C1 (stereo not shown) [Analog 108]
## Output 14.1

The values you see were collected from patent US11241398B2.
